# Test system: L. major (FV1) promastigotes
# experiment: Antipromastigote resazurin assay, L. major (FV1) wild type
# Type: cell-based, Leishmania major
# assayConditions: L. major promastigotes, dose response
assayMetric: ED50 vs L. major

>>> valueobserved("Cc1nnc(NS(=O)(=O)c2ccc(N)cc2)s1 [sulfamethizole 14, sulfamethizole, reference compound]")
"39.60 mM"
>>> valueobserved("O=c1[nH]c2ccccc2n1C1CCN(CCCC(c2ccc(F)cc2)c2ccc(F)cc2)CC1 [pimozide 10, pimozide, reference compound]")
"22.90 mM"
>>> valueobserved("CC(NCCC(c1ccccc1)c1ccccc1)c1ccccc1 (centres unmarked) [fendiline 6, fendiline, reference compound]")
"7.64 mM"

Next compound, ED50 vs L. major to be filled in.
Prompt: Data request, read-out ED50 vs L. major, for CN1CCN(CCCN2c3ccccc3Sc3ccc(C(F)(F)F)cc32)CC1 [trifluoperazine 16, trifluoperazine, reference compound]
Completion: 7.17 mM

meta.source: paper PMC7802075
